biological target: Cathepsin D (Cat D) (Homo sapiens); assay: In vitro enzymatic Cathepsin D (Cat D) FRET assay; type: biochemical; conditions: Cathepsin D FRET assay; read-out: CatD IC50
measurement kind: pIC50
The scale used: pIC50 is minus the common logarithm of the concentration in molar units.

I would be grateful if you could share the reported pIC50 for CC1(C)C(N)=N[C@]2(C)c3cc(NC(=O)c4ccc(OCC(F)(F)F)cn4)ccc3OCC[C@H]2S1(=O)=O [Example 97] .
3.01

And what about the molecule C[C@H]1C[C@@H]2[C@](C)(N=C(N)C(C)(C)S2(=O)=O)c2cc(NC(=O)c3ccc(C(F)(F)F)cn3)ccc2O1 [Example 84] ?
2.56

Check CCCOc1cnc2c(Nc3ccc4c(c3)[C@@]3(C)N=C(N)C(C)(C)S(=O)(=O)[C@@H]3C[C@H](C)O4)nccc2n1 [Example 135] too.
3.98

Cool, now C[C@H]1C[C@@H]2[C@](C)(N=C(N)C(C)(C)S2(=O)=O)c2cc(NC(=O)c3ncc(Cl)cc3Cl)ccc2O1 [Example 129]
3.25

Now try C[C@H]1C[C@@H]2[C@](C)(N=C(N)C(C)(C)S2(=O)=O)c2cc(Nc3nccc4nc(O)cnc34)ccc2O1 [Example 136] .
3.61

Request: COc1cnc(C(=O)Nc2ccc3c(c2)[C@@]2(C)N=C(N)C(C)(C)S(=O)(=O)[C@@]2(F)CCO3)cn1 [Example 89]
3.40

Same thing, different molecule: COc1cnc(C(=O)Nc2ccc3c(c2)[C@@]2(C)N=C(N)C(C)(C)S(=O)(=O)[C@@H]2CC(C)(C)O3)cn1 [Example 100]
2.87

Item: COCc1ccc(C(=O)Nc2ccc3c(c2)[C@@]2(C)N=C(N)C(C)(C)S(=O)(=O)[C@@H]2CCO3)nc1 [Example 92]
2.52

Also need Cc1nc(OCC(F)F)cnc1C(=O)Nc1ccc2c(c1)[C@@]1(C)N=C(N)C(C)(C)S(=O)(=O)[C@@H]1CCO2 [Example 91] , thanks.
2.73

###

Kindly state pIC50 for each of the entries shown.
target: Cathepsin D (Cat D) (Homo sapiens, UniProt P07339); assay: In vitro enzymatic Cathepsin D (Cat D) FRET assay; type: biochemical; details: Cathepsin D FRET assay; read-out: CatD IC50
Sequence (P07339 65-412, species assumed): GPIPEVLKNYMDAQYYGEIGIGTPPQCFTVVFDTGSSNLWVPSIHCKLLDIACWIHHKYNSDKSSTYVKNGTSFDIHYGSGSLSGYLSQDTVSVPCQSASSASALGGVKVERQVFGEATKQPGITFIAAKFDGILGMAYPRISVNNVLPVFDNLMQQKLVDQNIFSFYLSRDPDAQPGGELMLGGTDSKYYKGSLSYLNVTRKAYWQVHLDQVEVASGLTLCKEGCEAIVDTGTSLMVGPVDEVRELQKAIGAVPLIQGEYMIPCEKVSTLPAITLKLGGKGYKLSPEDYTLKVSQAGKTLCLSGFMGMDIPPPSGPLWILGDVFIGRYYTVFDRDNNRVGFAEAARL
By convention, pIC50 is the negative base-10 log of a molar concentration.

Item C[C@H]1C[C@@H]2[C@](C)(N=C(N)C(C)(C)S2(=O)=O)c2cc(Nc3nccc4nc(OCc5ccn(C)n5)cnc34)ccc2O1 [Example 146] has what recorded pIC50?
3.09

Next: CC1(C)C(N)=N[C@]2(CF)c3cc(NC(=O)c4ccc(OC(F)F)cn4)ccc3OCC[C@@H]2S1(=O)=O [Example 122]
2.99

Can you check CC1(C)C(N)=N[C@]2(CF)c3cc(NC(=O)c4cnc(C(F)(F)F)cn4)ccc3OCC[C@@H]2S1(=O)=O [Example 120] next?
3.12

###

molecular target: Cathepsin D (Cat D) (Homo sapiens); experiment: In vitro enzymatic Cathepsin D (Cat D) FRET assay; assay type: biochemical; details: read-out: CatD IC50
Note that class boundaries on IC50 are bottom end = under 300 µM, midrange = from 300 µM up to 500 µM, top end = 500 µM and over

For `CC1(C)C(N)=N[C@]2(C)c3cc(NC(=O)c4ccc(Cl)cn4)ccc3OCC[C@@]2(F)S1(=O)=O` , which IC50 bin applies?
bottom end

Thanks! And `CC1(C)C(N)=N[C@]2(C)c3cc(Nc4nccc5cc(Cl)cnc45)cnc3OCC[C@H]2S1(=O)=O` ?
bottom end

Query `C[C@H]1C[C@@H]2[C@](C)(N=C(N)C(C)(C)S2(=O)=O)c2cc(NC(=O)c3cnc(Cl)cn3)ccc2O1` next
bottom end

Param item: `COc1cnc(C(=O)Nc2ccc3c(c2)[C@@]2(C)N=C(N)C(C)(C)S(=O)(=O)[C@H]2CCC3)c(C)c1`
top end

Query `COc1cnc2c(Nc3ccc4c(c3)[C@@]3(C)N=C(N)C(C)(C)S(=O)(=O)[C@@H]3CCO4)ncnc2c1` next
top end

Can you handle `CC#CCOc1cnc(C(=O)Nc2ccc3c(c2)[C@@]2(C)N=C(N)C(C)(C)S(=O)(=O)[C@@H]2CCC3)cn1` next?
bottom end

Now try `CC1(C)C(N)=N[C@]2(C)c3cc(NC(=O)c4ccc(Cl)cn4)ccc3CCC[C@H]2S1(=O)=O` .
midrange

One more compound: `COc1cnc(C(=O)Nc2ccc3c(c2)[C@@]2(C)N=C(N)C(C)(C)S(=O)(=O)[C@H]2CCO3)c(C)c1`
top end

What about this compound? `Cc1cc(COc2cnc(C(=O)Nc3ccc4c(c3)[C@@]3(C)N=C(N)C(C)(C)S(=O)(=O)[C@@H]3C[C@H](C)O4)cn2)on1`
midrange

Next entry: `CC#CCOc1cnc(C(=O)Nc2ccc3c(c2)[C@@]2(C)N=C(N)C(C)(C)S(=O)(=O)[C@@H]2C[C@H](C)O3)cn1`
midrange

Entry `CC1(C)C(N)=N[C@]2(C)c3cc(Nc4nccc5cc(Cl)cnc45)ccc3CCC[C@@H]2S1(=O)=O` please
midrange

Now the compound `COc1cnc2c(Nc3ccc4c(c3)[C@@]3(C)N=C(N)C(C)(C)S(=O)(=O)[C@@H]3C[C@H](C)O4)ncc(F)c2c1`
bottom end

Now consider `Cc1cc(OC(F)F)cnc1C(=O)Nc1ccc2c(c1)[C@@]1(C)N=C(N)C(C)(C)S(=O)(=O)[C@H]1CCO2` .
top end

Hey, just so you know, these numbers are from patent US9309263B2.
